Where a name gives a salt, the structure may show the parent alone.
Metric name: melting point

Look up and state reported melting point for COC[C@@H](C)n1cc(Cl)nc(N2CCCc3cc(OC)cc(Br)c32)c1=O [Example 553]
146 °C

Name the recorded melting point of the molecule listed here: CC[C@H](COC)n1cc(Cl)nc(N2CCc3cc(Cl)cc(Cl)c32)c1=O [Example 524]
143 to 146 °C

Report melting point, nothing else, for this molecule: CCC(COC)Nc1nc(C)nc(N2CCc3cc(OC)cc(Cl)c32)c1I (centres unmarked) [Example 74]
150 to 152 °C

Note down melting point recorded for CC[C@H](COC)n1cc(Cl)nc(N2CCc3cc(OC)cc(C)c32)c1=O (as salt: hydrochloride) [Example 545]
62 to 64 °C

Read off the recorded melting point for CC[C@@H](COC)n1cc(Br)nc(N2CCc3cc(Cl)cc(Cl)c32)c1=O [Example 531]
152 to 154 °C

Kindly indicate its recorded melting point. Item: CCC(COC)n1cc(Cl)nc(N2CCc3cc(OC)cc(Cl)c32)c1=O (centres unmarked) [Example 413]
131 to 133 °C

Return value of melting point for input CCC(COC)n1cc(Cl)nc(N2CCc3cc(OC)c(F)c(Cl)c32)c1=O (centres unmarked) [Example 522] , no commentary.
140 to 142 °C

Name the recorded melting point of the molecule listed here: CC[C@H](COC)n1cc(Br)nc(N2CCCc3cc(OC)cc(Br)c32)c1=O [Example 554]
102 to 103 °C

====

Counter-ions that a name gives are not always drawn.
Metric name: melting point

Identify melting point associated with the compound CC[C@H](C1CC1)n1cc(Cl)nc(N2CCCc3cc(OC)cc(Br)c32)c1=O
127 to 129 °C

State its melting point for this compound: CCC(CC)n1cc(C)nc(N2CCc3cc(OC)cc(C)c32)c1=O (as salt: hydrochloride)
138 to 140 °C

Give reported melting point value for CCC(CC)n1cc(Cl)nc(N2CCc3cc(OC)cc(Br)c32)c1=O (as salt: hydrochloride)
130 to 132 °C

For the compound CC[C@@H](COC)n1cc(Cl)nc(N2CCc3cc(Br)cc(Cl)c32)c1=O , give its measured melting point value.
121 to 122 °C

Tell us which melting point value is on record for CC[C@H](COC)n1cc(Cl)nc(N2CCc3cc(OC)cc(Cl)c32)c1=O (as salt: hydrochloride)
126 to 128 °C

Using the record for CCC(CC)n1cc(Cl)nc(N2CCc3cc(OC)cc(C)c32)c1=O (as salt: hydrochloride) , state its measured melting point.
164 to 165 °C

Supply reported melting point belonging to this compound: CCc1cn(C(CC)CC)c(=O)c(N2CCc3cc(Cl)cc(Cl)c32)n1
136 to 137 °C

====

Give measured melting point for each item. Keep answers brief.
Where a name gives a salt, the structure may show the parent alone.

Read off the recorded melting point for CC[C@@H](C1CC1)n1cc(Cl)nc(N2CCc3cc(OC)cc(Cl)c32)c1=O (as salt: hydrochloride) [Example 514]
128 to 130 °C

Return reported melting point. Input compound: COC[C@@H](C)n1cc(Cl)nc(N2CCc3cc(Br)cc(Br)c32)c1=O [Example 521]
119 to 120 °C

Provide one value: measured melting point of CCC(CC)Nc1nc(C)nc(N2CCc3cc(Cl)cc(Cl)c32)c1Cl [Example 2]
132 to 134 °C

Quickly give me recorded melting point for CC[C@@H](C1CC1)n1cc(Cl)nc(N2CCc3cc(OC)c(F)c(Cl)c32)c1=O [Example 519]
127 to 129 °C

Write down melting point measured for item CCC(CC)n1cc(Br)nc(N2CCc3cc(OC)cc(C)c32)c1=O (as salt: hydrochloride) [Example 506]
152 to 154 °C

Annotate the compound CCC(CC)Nc1nc(C)nc(N2CCc3cc(Cl)cc(Cl)c32)c1C=O [Example 6] with its measured melting point.
182 to 184 °C

State its melting point: CCC(CC)Nc1cc(N2CCc3cc(Cl)cc(Cl)c32)nc(C)n1 [Example 1]
116 to 117 °C

State its melting point for this compound: CC[C@H](C1CC1)n1cc(Cl)nc(N2CCc3cc(OC)cc(Br)c32)c1=O (as salt: hydrochloride) [Example 509]
138 to 140 °C
